These entries and their values trace back to paper PMC10945739.

test system: Penicillium citrii; test: Antifungal bioassay, poisoned medium technique; format: cell-based; conditions: 168 h, poisoned medium, 25 ± 2 °C, seven days, read-out: MIC values against Penicillium citrii
Below, each of the compounds is paired with its reported MIC value.
quantity-name: MIC (µM)

compound	quantity-name	number
CCC(CCC(C)C1CCC2C3CC(=O)C4=CC(=O)CCC4(C)C3CCC12C)C(C)C (stereo not drawn)	MIC	0.04
COc1cc(O)cc2oc(-c3ccc(O)c(O)c3)cc(=O)c12	MIC	0.06
Cc1cc(O)c2c(c1)C(=O)c1cc(O)cc(O)c1C2=O	MIC	0.045
O=c1cc(-c2ccc(O)c(O)c2)oc2cc(O)cc(O)c12	MIC	0.05
O=c1cc(-c2ccc(O)c(O)c2)oc2cc(O)c([C@@H]3O[C@H](CO)[C@@H](O)[C@H](O)[C@H]3O)c(O)c12 [Luteolin-6-C-β-D-glucopyranoside]	MIC	0.022
O=c1cc(-c2ccc(O)c(O)c2)oc2cc(O)ccc12 [Compound 3, 3′,4′,7-Trihydroxyflavone]	MIC	0.016
COc1cc(O)c2c(c1)C(=O)c1cc(C)cc(O)c1C2=O	MIC	0.03
Cc1cc(O)c2c(c1)C(=O)c1cccc(O)c1C2=O	MIC	0.05
CC[C@H](CC[C@@H](C)[C@H]1CC[C@H]2[C@@H]3C[C@H](O)C4=C[C@@H](O)CC[C@]4(C)[C@H]3CC[C@]12C)C(C)C	MIC	0.2

====

Below, each of the molecules is paired with its reported IC50 value.
Molecular target: Jack bean urease (Canavalia ensiformis)
Test: biochemical
Assay type: biochemical
Method: The inhibition potential of the isolated compounds against urease was investigated using a SpectraMax M2 reader using 96-well microplates. […] In 96-well plates were incubated at 37 °C for 15 min, reaction mixtures consisting of 25 μL of test compounds (each 0.5 mM), 25 μL of enzyme solution (Jack bean urease) and 55 μL of buffers containing 20.79 mM urea. […] The microplate reader (Molecular Devices, USA) was used to measure the increase in absorbance at 650 nm after 50 min. […]
quantity-name: IC50 (µM)

molecule	target-or-test-system	number
CC[C@H](CC[C@@H](C)[C@H]1CC[C@H]2[C@@H]3C[C@H](O)C4=C[C@@H](O)CC[C@]4(C)[C@H]3CC[C@]12C)C(C)C	Jack bean urease (Canavalia ensiformis)	6.68
Cc1cc(O)c2c(c1)C(=O)c1cc(O)cc(O)c1C2=O	Jack bean urease (Canavalia ensiformis)	5.2
C=C(CCC(=CC)C(C)C)C1CCC2C3=CCC4C(C)C(O)CCC4(C)C3CCC12C (stereo not drawn)	Jack bean urease (Canavalia ensiformis)	1.02

====

Below, each of the compounds is paired with its reported log10 of MIC value.
tested on: Aspergillus niger; assay: Antifungal bioassay, poisoned medium technique; assay type: cell-based; conditions: 168 h, poisoned medium, 25 ± 2 °C, seven days, read-out: MIC values against Aspergillus niger
quantity-name: log10 of MIC (log10 of the value in µM)

compound	target-or-test-system	quantity-name	number
CCC(CCC(C)C1CCC2C3CC(=O)C4=CC(=O)CCC4(C)C3CCC12C)C(C)C (stereo not drawn)	Aspergillus niger	log10 of MIC	-1.70
Cc1cc(O)c2c(c1)C(=O)c1cccc(O)c1C2=O	Aspergillus niger	log10 of MIC	-1.52
O=c1cc(-c2ccc(O)c(O)c2)oc2cc(O)c([C@@H]3O[C@H](CO)[C@@H](O)[C@H](O)[C@H]3O)c(O)c12 [Luteolin-6-C-β-D-glucopyranoside]	Aspergillus niger	log10 of MIC	-2.14
O=c1cc(-c2ccc(O)c(O)c2)oc2cc(O)ccc12 [Compound 3, 3′,4′,7-Trihydroxyflavone]	Aspergillus niger	log10 of MIC	-1.49
COc1cc(O)cc2oc(-c3ccc(O)c(O)c3)cc(=O)c12	Aspergillus niger	log10 of MIC	-2.00
Cc1cc(O)c2c(c1)C(=O)c1cc(O)cc(O)c1C2=O	Aspergillus niger	log10 of MIC	-1.40
CC[C@H](CC[C@@H](C)[C@H]1CC[C@H]2[C@@H]3C[C@H](O)C4=C[C@@H](O)CC[C@]4(C)[C@H]3CC[C@]12C)C(C)C	Aspergillus niger	log10 of MIC	-1.82
COc1cc(O)c2c(c1)C(=O)c1cc(C)cc(O)c1C2=O	Aspergillus niger	log10 of MIC	-1.05
O=c1cc(-c2ccc(O)c(O)c2)oc2cc(O)cc(O)c12	Aspergillus niger	log10 of MIC	-1.68

====

biological target: Jack bean urease (Canavalia ensiformis, UniProt P07374); experiment: biochemical; assay type: biochemical; settings: pH 6.8, read-out: % Inhibition of urease
Sequence (P07374 whole entry, looked up): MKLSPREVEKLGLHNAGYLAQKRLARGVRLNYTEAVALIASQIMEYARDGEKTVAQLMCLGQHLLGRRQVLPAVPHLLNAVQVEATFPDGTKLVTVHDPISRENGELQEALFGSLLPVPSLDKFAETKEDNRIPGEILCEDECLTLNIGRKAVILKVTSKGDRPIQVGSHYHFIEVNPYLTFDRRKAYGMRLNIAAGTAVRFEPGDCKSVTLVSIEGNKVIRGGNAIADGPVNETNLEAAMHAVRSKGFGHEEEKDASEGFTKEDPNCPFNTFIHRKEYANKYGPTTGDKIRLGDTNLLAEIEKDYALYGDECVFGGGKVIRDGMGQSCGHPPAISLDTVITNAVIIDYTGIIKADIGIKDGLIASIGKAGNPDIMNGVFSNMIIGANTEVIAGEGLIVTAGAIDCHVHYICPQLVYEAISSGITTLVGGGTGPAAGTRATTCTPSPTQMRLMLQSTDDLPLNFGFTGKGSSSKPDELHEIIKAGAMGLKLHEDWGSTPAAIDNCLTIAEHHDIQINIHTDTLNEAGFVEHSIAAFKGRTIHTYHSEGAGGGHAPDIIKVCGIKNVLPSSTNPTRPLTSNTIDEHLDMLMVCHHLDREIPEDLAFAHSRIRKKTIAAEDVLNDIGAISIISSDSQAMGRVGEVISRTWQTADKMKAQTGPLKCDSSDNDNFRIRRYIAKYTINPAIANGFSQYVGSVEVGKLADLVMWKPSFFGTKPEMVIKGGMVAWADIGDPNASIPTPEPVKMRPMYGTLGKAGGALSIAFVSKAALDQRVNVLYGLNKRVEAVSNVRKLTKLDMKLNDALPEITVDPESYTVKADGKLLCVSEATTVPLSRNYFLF

compound	target-or-test-system	inhibition at 500 µM, %
O=c1cc(-c2ccc(O)cc2)oc2c([C@@H]3O[C@H](CO)[C@@H](O)[C@H](O)[C@H]3O)c(O)cc(O)c12 [Compound 5, Apigenin-8-C-β-D-glucopyranoside]	Jack bean urease (Canavalia ensiformis, UniProt P07374)	77.5
Cc1cc(O)c2c(c1)C(=O)c1cccc(O)c1C2=O	Jack bean urease (Canavalia ensiformis, UniProt P07374)	78.2
Cc1cc(O)c2c(c1)C(=O)c1cc(O)cc(O)c1C2=O	Jack bean urease (Canavalia ensiformis, UniProt P07374)	72.9
COc1cc(O)cc2oc(-c3ccc(O)c(O)c3)cc(=O)c12	Jack bean urease (Canavalia ensiformis, UniProt P07374)	82.7
CC[C@H](CC[C@@H](C)[C@H]1CC[C@H]2[C@@H]3CC=C4C[C@@H](O)CC[C@]4(C)[C@H]3CC[C@]12C)C(C)C	Jack bean urease (Canavalia ensiformis, UniProt P07374)	80
CC[C@H](CC[C@@H](C)[C@H]1CC[C@H]2[C@@H]3CC(=O)C4=CC(=O)CC[C@]4(C)[C@H]3CC[C@]12C)C(C)C	Jack bean urease (Canavalia ensiformis, UniProt P07374)	13.4
CC[C@H](CC[C@@H](C)C1CCC2C3CC=C4C[C@@H](O[C@@H]5O[C@H](CO)[C@@H](O)[C@H](O)[C@H]5O)CC[C@]4(C)C3CC[C@@]21C)C(C)C (stereo partly drawn) [Compound 16, β-Sitosterol 3-O-β-D-glucopyranoside]	Jack bean urease (Canavalia ensiformis, UniProt P07374)	19.5
O=c1cc(-c2ccc(O)c(O)c2)oc2c([C@@H]3O[C@H](CO)[C@@H](O)[C@H](O)[C@H]3O)c(O)cc(O)c12 [Compound 6, Luteolin-8-C-β-D-glucopyranoside]	Jack bean urease (Canavalia ensiformis, UniProt P07374)	71.5
CCC(CCC(C)C1CCC2C3CC(O)C4=CC(=O)CCC4(C)C3CCC12C)C(C)C (centres unmarked) [Synthesized compound]	Jack bean urease (Canavalia ensiformis, UniProt P07374)	69
O=c1cc(-c2ccc(O)c(O)c2)oc2cc(O)cc(O)c12	Jack bean urease (Canavalia ensiformis, UniProt P07374)	82
CCCCCCCCCCCCCCCCCCC(=O)O	Jack bean urease (Canavalia ensiformis, UniProt P07374)	80.4
C=C(CCC(=CC)C(C)C)C1CCC2C3=CCC4C(C)C(O)CCC4(C)C3CCC12C (centres unmarked)	Jack bean urease (Canavalia ensiformis, UniProt P07374)	82.3
COc1cc(O)c2c(c1)C(=O)c1cc(C)cc(O)c1C2=O	Jack bean urease (Canavalia ensiformis, UniProt P07374)	63.5
CC[C@H](CC[C@@H](C)[C@H]1CC[C@H]2[C@@H]3C[C@H](O)C4=C[C@@H](O)CC[C@]4(C)[C@H]3CC[C@]12C)C(C)C	Jack bean urease (Canavalia ensiformis, UniProt P07374)	76.6

====

Below, each of the compounds is paired with its reported pIC50 value.
biological target: Jack bean urease (Canavalia ensiformis); test: biochemical; type: biochemical
pIC50: −log10 of the molar value.

compound	pIC50
CC[C@H](CC[C@@H](C)[C@H]1CC[C@H]2[C@@H]3CC=C4C[C@@H](O)CC[C@]4(C)[C@H]3CC[C@]12C)C(C)C	5.56
CCCCCCCCCCCCCCCCCCC(=O)O	5.71
O=c1cc(-c2ccc(O)cc2)oc2c([C@@H]3O[C@H](CO)[C@@H](O)[C@H](O)[C@H]3O)c(O)cc(O)c12 [Compound 5, Apigenin-8-C-β-D-glucopyranoside]	5.33
COc1cc(O)cc2oc(-c3ccc(O)c(O)c3)cc(=O)c12	5.41
COc1cc(O)c2c(c1)C(=O)c1cc(C)cc(O)c1C2=O	5.20
O=c1cc(-c2ccc(O)c(O)c2)oc2c([C@@H]3O[C@H](CO)[C@@H](O)[C@H](O)[C@H]3O)c(O)cc(O)c12 [Compound 6, Luteolin-8-C-β-D-glucopyranoside]	5.30
Cc1cc(O)c2c(c1)C(=O)c1cccc(O)c1C2=O	5.23
O=c1cc(-c2ccc(O)c(O)c2)oc2cc(O)cc(O)c12	5.89

====

molecular target: Jack bean urease (Canavalia ensiformis, UniProt P07374); assay: biochemical; assay type: biochemical; conditions: read-out: IC50, urease (conclusions)
quantity-name: IC50 (µM)

molecule	number
NC(N)=S [thiourea, reference compound]	18.6
